ASSAYED_TARGET: human cathepsin K (Homo sapiens, UniProt P43235)
Construct: purchased Calbiochem 342001
Sequence (P43235 115-329): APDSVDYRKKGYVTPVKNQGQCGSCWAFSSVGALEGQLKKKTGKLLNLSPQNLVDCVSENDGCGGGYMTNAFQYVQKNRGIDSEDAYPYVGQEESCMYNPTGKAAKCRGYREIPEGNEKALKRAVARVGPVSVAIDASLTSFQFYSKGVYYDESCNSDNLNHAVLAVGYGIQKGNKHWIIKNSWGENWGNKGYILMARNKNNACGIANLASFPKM
PROCEDURE_SUMMARY: Selectivity assay, cathepsin K
Format: biochemical
RESULT_TYPE: pIC50
Give bare numbers, as −log10 of the molar value.

(Q) Please tell me the measured pIC50 for CCc1ccccc1NC(=O)CSC(=O)NNC(=O)[C@H](Cc1c[nH]c2ccccc12)NC(=O)OC(C)(C)C ; system: human cathepsin K (Homo sapiens, UniProt P43235).
(A) 4.75

###

ASSAYED_TARGET: Papain from Carica papaya (Carica papaya)
Construct: Papain from Carica papaya (Calbiochem 5125, 11 ng/mL); purchased Calbiochem 5125; host or cells: Carica papaya
Sequence (P00784 134-345): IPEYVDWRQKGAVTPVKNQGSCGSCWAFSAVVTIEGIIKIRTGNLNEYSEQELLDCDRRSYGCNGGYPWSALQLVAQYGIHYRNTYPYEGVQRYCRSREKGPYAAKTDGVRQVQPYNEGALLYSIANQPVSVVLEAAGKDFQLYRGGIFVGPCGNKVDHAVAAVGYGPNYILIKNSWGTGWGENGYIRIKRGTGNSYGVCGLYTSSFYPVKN
PROCEDURE_SUMMARY: Selectivity assay, papain
Format: biochemical
ASSAY_CONDITIONS: Papain; no preincubation; 90 min; read-out: IC50 @ 90 min
RESULT_TYPE: pIC50
Give bare numbers, as −log10 of the molar value.

(Q) Provide only the value of recorded pIC50 for CCc1ccccc1NC(=O)CSC(=O)NNC(=O)[C@H](Cc1c[nH]c2ccccc12)NC(=O)OC(C)(C)C
(A) 5.81

###

ASSAYED_TARGET: human liver cathepsin L (Homo sapiens, UniProt P07711)
Construct: 8.7 ng/mL human liver cathepsin L (Calbiochem 219402); purchased Calbiochem 219402; host or cells: human liver
Sequence (P07711 114-288 limits assumed): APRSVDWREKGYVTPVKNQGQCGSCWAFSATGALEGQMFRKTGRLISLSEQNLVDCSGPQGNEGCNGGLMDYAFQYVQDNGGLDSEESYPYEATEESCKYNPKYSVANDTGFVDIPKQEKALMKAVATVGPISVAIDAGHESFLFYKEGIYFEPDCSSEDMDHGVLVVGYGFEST
Sequence (P07711 292-333 limits assumed): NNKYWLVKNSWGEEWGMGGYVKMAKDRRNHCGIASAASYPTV
PROCEDURE_SUMMARY: Cathepsin L assay, IC50 determination
Assay type: biochemical
ASSAY_CONDITIONS: Table 1; read-out: IC50 Cat L
RESULT_TYPE: IC50 (µM)
One number for each entry, in µM.

Look over these answered cases.
compound=CSCC[C@H](NC(=O)OC(C)(C)C)C(=O)NNC(=O)SCC(=O)N1CCc2ccccc2C1 result_type=IC50 measured_value=0.52
compound=CCc1ccccc1NC(=O)CSC(=O)NNC(=O)C[C@@H](NC(=O)OC(C)(C)C)C(C)C result_type=IC50 measured_value=7.52
compound=CSCC[C@H](NC(=O)OC(C)(C)C)C(=O)NNC(=O)SCC(=O)N1CCCc2ccccc21 result_type=IC50 measured_value=1.34
compound=CC(C)(C)OC(=O)N[C@@H](COCc1ccccc1)CC(=O)NNC(=O)SCC(=O)N1CCCc2ccccc21 result_type=IC50 measured_value=2.12

Return reported IC50 values for all items listed beneath this line.
1. CC(C)[C@H](NC(=O)OC(C)(C)C)C(=O)NNC(=O)SCC(=O)N1CCc2ccccc21
2. CC(C)(C)OC(=O)N[C@@H](COCc1ccccc1)C(=O)NNC(=O)SCC(=O)N1CCCc2ccccc21
3. CCc1ccccc1NC(=O)CSC(=O)NNC(=O)[C@H](CCCCNC(=O)OCc1ccccc1)NC(=O)OC(C)(C)C
4. CC(C)(C)OC(=O)N[C@@H](COCc1ccccc1)C(=O)NNC(=O)SCC(=O)NCCc1ccccc1
5. CC(C)(C)OC(=O)N[C@@H](Cc1ccc(OCc2ccccc2)cc1)C(=O)NNC(=O)SCC(=O)N1CCc2ccccc21

(A)
1. 0.45
2. 1.51
3. 1.27
4. 0.51
5. 0.7

Return reported IC50 values for all items listed beneath this line.
1. CCc1ccccc1NC(=O)CSC(=O)NNC(=O)C[C@H](CCSC)NC(=O)OC(C)(C)C
2. CC(C)(C)OC(=O)N[C@@H](Cc1ccc(OCc2ccccc2)cc1)C(=O)NNC(=O)SCC(=O)Nc1ccccc1[N+](=O)[O-]
3. CCc1ccccc1NC(=O)CSC(=O)NNC(=O)[C@@H](NC(=O)OC(C)(C)C)C(C)OCc1ccccc1 (stereo partly shown)
4. CCc1ccccc1NC(=O)CSC(=O)NNC(=O)[C@@H](COCc1ccccc1)NC(=O)OC(C)(C)C

(A)
1: 5.52; 2: 0.59; 3: 13.7; 4: 15.4

###

ASSAYED_TARGET: Human spleen cathepsin S (Homo sapiens, UniProt P25774)
Construct: Human spleen cathepsin S (Calbiochem 219344, 40 ng/mL); purchased Calbiochem 219344; host or cells: human spleen
Sequence (P25774 115-331): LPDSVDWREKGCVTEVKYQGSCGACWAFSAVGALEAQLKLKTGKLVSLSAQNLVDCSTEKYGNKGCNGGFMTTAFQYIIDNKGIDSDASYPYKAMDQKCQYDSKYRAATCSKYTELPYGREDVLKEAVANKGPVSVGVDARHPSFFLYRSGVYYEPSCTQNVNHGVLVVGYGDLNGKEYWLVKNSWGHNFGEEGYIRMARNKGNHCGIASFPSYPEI
PROCEDURE_SUMMARY: Cathepsin S assay, IC50 determination
Format: biochemical
ASSAY_CONDITIONS: Table 1; read-out: IC50 Cat S
Would you kindly list IC50 for each of these compounds?
One number for each entry, in nM.

compound="CCc1ccccc1NC(=O)CSC(=O)NNC(=O)[C@@H](NC(=O)OC(C)(C)C)C(C)OCc1ccccc1 (stereo partly shown)" measured_value=3320
compound=CCOC(=O)c1cccc(NC(=O)CSC(=O)NNC(=O)[C@H](COCc2ccccc2)NC(=O)OC(C)(C)C)c1 measured_value=1640
compound=CC(C)(C)OC(=O)N[C@@H](Cc1c[nH]c2ccccc12)C(=O)NNC(=O)SCC(=O)N1CCc2ccccc2C1 measured_value=530
compound=CSCC[C@H](NC(=O)OC(C)(C)C)C(=O)NNC(=O)SCC(=O)N1CCCc2ccccc21 measured_value=630

Return reported IC50 values for all items listed beneath this line.
1. CC(C)(C)OC(=O)N[C@H](COCc1ccccc1)C(=O)NNC(=O)SCC(=O)N1CCCc2ccccc21
2. CCc1ccccc1NC(=O)CSC(=O)NNC(=O)[C@H](CCCNC(=N)N[N+](=O)[O-])NC(=O)OC(C)(C)C
3. CC(C)(C)OC(=O)N[C@@H](Cc1c[nH]c2ccccc12)C(=O)NNC(=O)SCC(=O)N1CCc2ccc(Br)cc2C1c1ccccc1 (stereo partly shown)

(A)
[5890, 2150, 2900]

Return reported IC50 values for all items listed beneath this line.
1. CC(C)(C)OC(=O)N[C@@H](Cc1ccc(OCc2ccccc2)cc1)C(=O)NNC(=O)SCC(=O)N1CCc2ccccc21
2. CCc1ccccc1NC(=O)CSC(=O)NNC(=O)[C@H](CCSC)NC(=O)OC(C)(C)C
3. CC(C)(C)OC(=O)N[C@@H](COCc1ccccc1)C(=O)NNC(=O)SCC(=O)N1CCCc2ccccc21

(A)
1. 8000
2. 690
3. 2640

Return reported IC50 values for all items listed beneath this line.
1. CSCC[C@H](NC(=O)OC(C)(C)C)C(=O)NNC(=O)SCC(=O)NCCc1c[nH]c2ccccc12
2. CC(C)(C)OC(=O)N[C@@H](COCc1ccccc1)C(=O)NNC(=O)SCC(=O)NCCc1c[nH]c2ccccc12

(A)
310
920

###

ASSAYED_TARGET: Human liver cathepsin B (Homo sapiens, UniProt P07858)
Construct: Human liver cathepsin B (Calbiochem 219362, 65 ng/mL); purchased Calbiochem 219362; host or cells: human liver
PROCEDURE_SUMMARY: Cathepsin B assay, IC50 determination
Assay type: biochemical
ASSAY_CONDITIONS: Table 1; read-out: IC50 Cat B
RESULT_TYPE: IC50

compound=CC(C)(C)OC(=O)N[C@@H](Cc1ccc(OCc2ccccc2)cc1)C(=O)NNC(=O)SCC(=O)N1CCc2ccccc2C1 measured_value="3.19 µM"
compound=CCOC(=O)c1ccc(NC(=O)CSC(=O)NNC(=O)[C@H](Cc2ccc(OCc3ccccc3)cc2)NC(=O)OC(C)(C)C)cc1 measured_value="> 25 µM"
compound=CC(C)(C)OC(=O)N[C@@H](Cc1c[nH]c2ccccc12)C(=O)NNC(=O)SCC(=O)N1CCc2ccccc2C1 measured_value="3.25 µM"
compound=CCc1ccccc1NC(=O)CSC(=O)NNC(=O)[C@H](CCSC)NC(=O)OC(C)(C)C measured_value="2.03 µM"
compound=C[C@H](NC(=O)OC(C)(C)C)C(=O)NNC(=O)SCC(=O)N1CCCc2ccccc21 measured_value="> 25 µM"

Return reported IC50 values for all items listed beneath this line.
1. CC(C)(C)OC(=O)N[C@@H](Cc1c[nH]c2ccccc12)C(=O)NNC(=O)SC1CCN(c2ccccc2)C1=O (some centres unmarked)
2. CCc1ccccc1NCCSC(=O)NNC(=O)[C@H](Cc1ccccc1)NC(=O)OC(C)(C)C
3. CC(C)(C)OC(=O)N[C@@H](COCc1ccccc1)C(=O)NNC(=O)SCC(=O)NCCc1ccccc1
4. CCc1ccccc1NC(=O)CSC(=O)NNC(=O)[C@@H]1CCCN1C(=O)OC(C)(C)C

(A)
14 µM
> 25 µM
> 25 µM
> 25 µM

Return reported IC50 values for all items listed beneath this line.
1. CC(C)(C)OC(=O)N[C@H](COCc1ccccc1)CC(=O)NNC(=O)SCC(=O)N1CCCc2ccccc21
2. CCc1ccccc1NC(=O)CSC(=O)NNC(=O)C[C@@H](Cc1c[nH]c2ccccc12)NC(=O)OC(C)(C)C

(A)
1. > 25 µM
2. > 25 µM

Return reported IC50 values for all items listed beneath this line.
1. CSCC[C@@H](CC(=O)NNC(=O)SCC(=O)N1CCCc2ccccc21)NC(=O)OC(C)(C)C
2. CCc1ccccc1NC(=O)CSC(=O)NNC(=O)C[C@H](COCc1ccccc1)NC(=O)OC(C)(C)C
3. CCc1ccccc1NC(=O)CSC(=O)NNC(=O)[C@H](CCCCNC(=O)OCc1ccccc1)NC(=O)OC(C)(C)C

(A)
["> 25 µM", "> 25 µM", "14.3 µM"]
